system: TGF-β-stimulated SMAD3 phosphorylation in BEAS-2B cells; assay: Cellular ALK5 potency assay, inhibition of TGF-β stimulated pSMAD3 formation in BEAS-2B cells; type: cell-based; conditions: Homo sapiens, pSMAD3, TGF-β 10 ng/mL, read-out: BEAS2B pIC50 (converted)
The entries below are paired with their reported IC50.

>  <Smiles input>
Cc1cccc(-c2nccc(Nc3ccnc(Nc4ccc(N5CCNCC5)c(CC(=O)O)c4)n3)n2)n1

>  <IC50>
200 to 1260 nM

$$$$
>  <Smiles input>
Cc1ccc(O)cc1-c1nccc(Nc2ccnc(Nc3ccc(N4CCC(N5CCN(C)CC5)CC4)cc3)n2)n1

>  <IC50>
25.1 to 158 nM

$$$$
>  <Smiles input>
Cc1cccc(-c2nccc(Nc3ccnc(Nc4ccc(CN5CCC(C(=O)O)CC5)cc4)n3)n2)n1

>  <IC50>
200 to 1260 nM

$$$$
>  <Smiles input>
Cc1cccc(-c2nccc(Nc3ccnc(Nc4ccc(C(=O)N5CCNCC5)cc4)n3)n2)n1

>  <IC50>
25.1 to 158 nM

$$$$
>  <Smiles input>
Cc1cccc(-c2nccc(Nc3ccnc(Nc4ccc(CN5CCN[C@H](C(=O)O)C5)cc4)n3)n2)n1

>  <IC50>
200 to 1260 nM

$$$$
>  <Smiles input>
Cc1cccc(-c2nccc(Nc3ccnc(Nc4ccc(C(=O)N5CCN(C)CC5)cc4)n3)n2)n1

>  <IC50>
25.1 to 158 nM

$$$$
>  <Smiles input>
Cc1cccc(-c2nccc(Nc3ccnc(Nc4ccc(O)cc4)n3)n2)n1

>  <IC50>
25.1 to 158 nM

$$$$
>  <Smiles input>
Cc1cccc(-c2nccc(Nc3ccnc(Nc4ccc(CN5CCSCC5)cc4)n3)n2)n1

>  <IC50>
25.1 to 158 nM

$$$$

The measurements presented in this section are drawn from patent US20230399312A1.
